Species on record: Rattus norvegicus
Assay: Tissue biodistribution into estrogen-primed immature female rat ovaries at 1 hr time interval
Type: ADME, organism-based, Female gonad
Conditions: in vivo
readout name: Injected dose/g (%)
The figure you give is taken to be in %; do not add the unit.

{"molecule": "C[C@]12CCC3C(CCC4=CC(=O)CC[C@@H]43)C1C[C@H]1OC(c3ccco3)O[C@]12C(=O)CF (stereo not given in full)", "Injected dose/g [%]": 2.76}
{"molecule": "CC1(c2ccco2)O[C@@H]2CC3C4CCC5=CC(=O)CC[C@@H]5C4CC[C@]3(C)[C@]2(C(=O)CF)O1 (stereo not given in full)", "Injected dose/g [%]": 3.04}
{"molecule": "CC(=O)[C@@]12O[C@](C)(c3ccc(F)cc3)O[C@@H]1CC1C3CCC4=CC(=O)CC[C@]4(C)C3CC[C@@]12C (stereo not given in full)", "Injected dose/g [%]": 3.93}
{"molecule": "CC[C@@H]1C[C@H]2[C@@H]3CCC4=CC(=O)CC[C@@H]4[C@H]3CC[C@]2(C)[C@H]1C(=O)CF", "Injected dose/g [%]": 2.86}

Now look at this entry.
Give the measured Injected dose/g for C[C@@]1(c2ccc(F)cc2)O[C@@H]2CC3C4CCC5=CC(=O)CC[C@@H]5C4CC[C@]3(C)[C@]2(C(=O)CO)O1 (stereo not given in full) 2.8
